test system: Micrococcus luteus ATCC 10240
Readout type: MIC (µM)
Give the value, in units of µM, as a plain number.

# Sample smiles, Assay system, Readout type, Quantity unit, Measured value
data = [
    ("CC(C)C[C@H](NC(=O)[C@H](Cc1c[nH]c2ccccc12)NC(=O)CNC(=O)[C@H](CC(C)C)NC(=O)[C@@H](N)Cc1ccccc1)C(=O)N[C@@H](Cc1ccccc1)C(=O)N[C@@H](CCCCN)C(=O)N[C@@H](Cc1c[nH]c2ccccc12)C(=O)N[C@@H](C)C(=O)N[C@@H](CO)C(=O)N[C@@H](CCCCN)C(N)=O", "Micrococcus luteus ATCC 10240", "MIC", "µM", 9.04),
    ("CC(C)C[C@H](NC(=O)[C@H](CC(C)C)NC(=O)[C@H](CCCCN)NC(=O)[C@H](CCCCN)NC(=O)[C@H](CC(C)C)NC(=O)[C@H](Cc1c[nH]c2ccccc12)NC(=O)[C@H](CCCCN)NC(=O)[C@H](CC(C)C)NC(=O)[C@@H](N)CC(C)C)C(=O)N[C@@H](CCCCN)C(=O)N[C@@H](CCCCN)C(N)=O", "Micrococcus luteus ATCC 10240", "MIC", "µM", 2.84),
    ("CC(C)C[C@H](NC(=O)CNC(=O)[C@H](CCCCN)NC(=O)[C@H](CC(C)C)NC(=O)[C@H](CC(N)=O)NC(=O)[C@@H](N)CC(C)C)C(=O)N[C@@H](Cc1ccccc1)C(=O)N[C@@H](CCCCN)C(=O)N[C@@H](CCCCN)C(=O)N[C@H](C(=O)N[C@@H](C)C(=O)N[C@@H](CO)C(=O)N[C@@H](CC(C)C)C(=O)N[C@@H](CC(C)C)C(=O)N[C@H](C(=O)O)[C@@H](C)O)C(C)C", "Micrococcus luteus ATCC 10240", "MIC", "µM", 30),
]

With those in mind, consider the next compound.
[ask] Give MIC only, for `CC[C@H](C)[C@H](NC(=O)[C@H](CCCN=C(N)N)NC(=O)[C@@H]1CCCN1C(=O)[C@H](Cc1cnc[nH]1)NC(=O)[C@@H]1CCCN1C(=O)[C@@H]1CCCN1C(=O)[C@H](CCCN=C(N)N)NC(=O)[C@@H]1CCCN1C(=O)[C@H](CCC(N)=O)NC(=O)[C@@H]1CCCN1C(=O)[C@H](CC(C)C)NC(=O)[C@H](Cc1ccc(O)cc1)NC(=O)[C@@H](NC(=O)[C@@H]1CCCN1C(=O)[C@H](CCCN=C(N)N)NC(=O)[C@H](CC(N)=O)NC(=O)[C@H](CC(N)=O)NC(=O)CN)C(C)C)C(N)=O` , using Micrococcus luteus ATCC 10240 data.
[reply] 0.925

# credit: DBAASP
